# Target Under Test: T1, ZFP SBS#803 (synthetic)
# T1 chain: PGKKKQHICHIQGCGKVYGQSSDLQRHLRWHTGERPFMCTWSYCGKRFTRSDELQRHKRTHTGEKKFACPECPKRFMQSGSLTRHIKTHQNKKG
# Assay: EMSA
# Measurement Context: tags: MBP fusion
Value Type: pKd
Answers are plain numbers, as −log10 of the molar value.

Qu. Data request, read-out pKd, for GCAGCGGCTC (dsDNA) DNA 1: GCAGCGGCTC DNA 2: GAGCCGCTGC
Ans. 7.24
